Reference source: patent US9975933B2

Test system: VE-cadherin in HUVEC
Experiment: Western blot of VE-cadherin in HUVEC
Format: cell-based, human
Details: single peptides and Fc-TPP 1 μM, 10 minutes
Description: During this process, a decrease in vascular endothelial (VE)-cadherin, phosphorylation, etc. of endothelial cells occur. That is, VE-cadherin or epithelial (E)-cadherin involves in adhesion between endothelial cells, while forming the base of adherent junction between endothelial cells and epithelial cells. The change in molecules relieve the density of adherent junction, which results in increasing permeability of blood vessels and improving intracellular permeability. […]

# SUBSTANCE, change in VE-cadherin (Western blot)
rows = [
    ("A22p: A22 with Asn758Pro, SEQ ID NO: 2, HTPGNSNKWKHLQENKKGRPRR (A22p) [Clone A22p]", "no change in VE-cadherin"),
    ("A22: Sema3A-derived 22 amino acid TPP, residues 739-760, SEQ ID NO: 1, HTPGNSNKWKHLQENKKGRNRR (A22) [Clone A22]", "no change in VE-cadherin"),
]
